Test system: DeltatarO mutant
assay_comment: S. aureus survival, RN4220 and DeltatarO strains – OD600, teichoic acid synthesis inhibitors, primary screen (AID 463173)
condition_set: S. aureus RN4220 wild type/DeltatarO growth, OD600, 18 h, hits give low values, screened at 18.75 µg/mL (by protocol)
The campaign covered roughly 52,000 compounds. About 4,300 (8.3%) were called active. The entries come from a sample that favours actives as a whole.

| molecule | target_desc | readout_unit | survival |
| --- | --- | --- | --- |
| Cn1c(=O)c2c(c3ccccc31)OC(=O)CC2c1ccc(C(F)(F)F)cc1 (stereo not given) | DeltatarO mutant | % | 61 |
| Cn1cnc(S(=O)(=O)N2CCC(C(=O)Nc3ccc(F)cc3F)CC2)c1 | DeltatarO mutant | % | 91 |
| CC(C)NC(=O)CSc1nc2ccccc2n1CC(=O)NC(C)C | DeltatarO mutant | % | 96 |
| Cc1ccc(N2CCN(c3nc4c(S(=O)(=O)c5ccc(C)c(C)c5)nnn4c4ccccc34)CC2)c(C)c1 | DeltatarO mutant | % | 82 |
| O=c1[nH]c2ccc(N=Cc3ccc(F)cc3)cc2[nH]1 | DeltatarO mutant | % | 73 |
| Cc1ccc(NC(=O)CSc2nc3ccccc3nc2Cc2ccccc2)c(Cl)c1 | DeltatarO mutant | % | 99 |
| CCOc1ccc(C2C(=O)N(C3CCCCC3)CC(=O)N2C2CCCC2)cc1OC (stereo not given) | DeltatarO mutant | % | 71 |
| COc1ccccc1C(=O)Nc1ccc(OCc2cc(=O)n3cccc(C)c3n2)cc1 | DeltatarO mutant | % | 94 |
| O=C(CN1CCCN(Cc2ccccc2Cl)S1(=O)=O)NCc1ccccc1 | DeltatarO mutant | % | 94 |
| Cc1noc(/C=C/c2cccs2)c1S(=O)(=O)N1CCC(C(=O)Nc2ccc(F)c(Cl)c2)CC1 | DeltatarO mutant | % | 52 |
